Please go through the items and note down their background-corrected fluorescence.
# test name: background-corrected fluorescence of 3'-dye-labeled ssDNA relative to brightest sequence (3'-GCGCG) (fraction); higher = brighter dye fluorescence (less quenching)
# condition parameters: dye: Cy5 (3' terminal)

Prompt line: Which background-corrected fluorescence is listed for TTTTTTGATGCTGAGCATGCTTTTTTTTTTTTTTTCACTA [ATCAC] ?
Response line: 0.352

Prompt line: Try this sequence next: TTTTTTGATGATGAGCATGATTTTTTTTTTTTTTTCCCTC [CTCCC]
Response line: 0.26

Prompt line: Try this sequence next: TTTTTTCAGCATCAGCATGCTTTTTTTTTTTTTTTGTGTA [ATGTG]
Response line: 0.434

Prompt line: Try this sequence next: TTTTTTCAGCAGCATGAGCATTTTTTTTTTTTTTTGTTCT [TCTTG]
Response line: 0.367

Prompt line: Try this sequence next: `TTTTTTGCTCATGCGCAGCATTTTTTTTTTTTTTTAGATT`
Response line: 0.41

Prompt line: Try this sequence next: TTTTTGCATCATGCGCAGCATTTTTTTTTTTTTTTTGATT [TTAGT]
Response line: 0.419

Prompt line: Try this sequence next: TTTTTTGCTCAGCAGCAGCATTTTTTTTTTTTTTTAGTTT [TTTGA]
Response line: 0.404

Prompt line: Try this sequence next: TTTTTTGCTGATGATCATGCTTTTTTTTTTTTTTTACCGA [AGCCA]
Response line: 0.515

Prompt line: Try this sequence next: TTTTTGCATCATGCTGATCATTTTTTTTTTTTTTTTGACG [GCAGT]
Response line: 0.433

Prompt line: Try this sequence next: TTTTTGCATCATCAGCATGCTTTTTTTTTTTTTTTTGGTA [ATGGT]
Response line: 0.492

Prompt line: Try this sequence next: TTTTTTGCTCAGCATGCTGCTTTTTTTTTTTTTTTAGTAA [AATGA]
Response line: 0.493

Prompt line: Try this sequence next: `TTTTTTGCTGATGCTGATGCTTTTTTTTTTTTTTTACACA`
Response line: 0.374

Prompt line: Try this sequence next: TTTTTTGCTGCTCATCAGCATTTTTTTTTTTTTTTAAGGT [TGGAA]
Response line: 0.585

Prompt line: Try this sequence next: TTTTTTCATGCGCAGCAGCATTTTTTTTTTTTTTTGATTT [TTTAG]
Response line: 0.383

Prompt line: Try this sequence next: `TTTTTTGCGCATGAGCATGCTTTTTTTTTTTTTTTATCTA`
Response line: 0.368

Prompt line: Try this sequence next: TTTTTTCAGCATCATCATGATTTTTTTTTTTTTTTGTGGC [CGGTG]
Response line: 0.439

Prompt line: Try this sequence next: TTTTTTCATCATCAGCATGATTTTTTTTTTTTTTTGGGTC [CTGGG]
Response line: 0.377

Prompt line: Try this sequence next: TTTTTTCATCATGATGCTCATTTTTTTTTTTTTTTGGCAG [GACGG]
Response line: 0.426

Prompt line: Try this sequence next: TTTTTTGAGCAGCATCAGCATTTTTTTTTTTTTTTCTTGT [TGTTC]
Response line: 0.429

Prompt line: Try this sequence next: TTTTTTGCTGAGCATGCGCATTTTTTTTTTTTTTTACTAT [TATCA]
Response line: 0.392

Prompt line: Try this sequence next: TTTTTGCAGCATGCTGATCATTTTTTTTTTTTTTTTTACG [GCATT]
Response line: 0.398

---

# test name: background-corrected fluorescence of 3'-dye-labeled ssDNA relative to brightest sequence (3'-GCGCG) (fraction); higher = brighter dye fluorescence (less quenching)
# condition parameters: dye: Cy3 (3' terminal)
Please go through the items and note down their background-corrected fluorescence.

Prompt line: Which background-corrected fluorescence is listed for TTTTTGCAGCATCATCAGCATTTTTTTTTTTTTTTTTGGT [TGGTT] ?
Response line: 0.689

Prompt line: Try this sequence next: `TTTTTGCATGCTGCTGCGCATTTTTTTTTTTTTTTTAAAT`
Response line: 0.612

Prompt line: Try this sequence next: TTTTTTGCGCATGCTGAGCATTTTTTTTTTTTTTTATACT [TCATA]
Response line: 0.504

Prompt line: Try this sequence next: TTTTTTGATCATGCTGCTGCTTTTTTTTTTTTTTTCGAAA [AAAGC]
Response line: 0.576

Prompt line: Try this sequence next: TTTTTTGCTGATCAGCATGATTTTTTTTTTTTTTTACGTC [CTGCA]
Response line: 0.448

Prompt line: Try this sequence next: TTTTTTGCTGAGCATCATGATTTTTTTTTTTTTTTACTGC [CGTCA]
Response line: 0.491

Prompt line: Try this sequence next: TTTTTGCATGAGCATGCGCATTTTTTTTTTTTTTTTCTAT [TATCT]
Response line: 0.501

Prompt line: Try this sequence next: TTTTTTCATGCGCAGCATCATTTTTTTTTTTTTTTGATTG [GTTAG]
Response line: 0.543

Prompt line: Try this sequence next: TTTTTTCATGCTCATGATGATTTTTTTTTTTTTTTGAGCC [CCGAG]
Response line: 0.425

Prompt line: Try this sequence next: TTTTTGCAGCATCATGATGCTTTTTTTTTTTTTTTTTGCA [ACGTT]
Response line: 0.546

---

# test name: background-corrected fluorescence of 3'-dye-labeled ssDNA relative to brightest sequence (3'-GCGCG) (fraction); higher = brighter dye fluorescence (less quenching)
# condition parameters: dye: Cy5 (3' terminal)
readout: background-corrected fluorescence
// print number alone

Prompt line: Which background-corrected fluorescence is listed for TTTTTTCATGCGCATGATGATTTTTTTTTTTTTTTGATCC [CCTAG] ?
Response line: 0.294

Prompt line: Try this sequence next: TTTTTTGCTGCTGATGCTCATTTTTTTTTTTTTTTAACAG [GACAA]
Response line: 0.421

Prompt line: Try this sequence next: TTTTTGCATCATGATGATGCTTTTTTTTTTTTTTTTGCCA [ACCGT]
Response line: 0.403

Prompt line: Try this sequence next: TTTTTTCAGCATGCTGCTGCTTTTTTTTTTTTTTTGTAAA [AAATG]
Response line: 0.513

Prompt line: Try this sequence next: TTTTTTGCTGATGCTCAGCATTTTTTTTTTTTTTTACAGT [TGACA]
Response line: 0.474

---

# test name: background-corrected fluorescence of 3'-dye-labeled ssDNA relative to brightest sequence (3'-GCGCG) (fraction); higher = brighter dye fluorescence (less quenching)
# condition parameters: dye: Cy3 (3' terminal)
readout: background-corrected fluorescence
// print number alone

Prompt line: Which background-corrected fluorescence is listed for TTTTTTCATGCGCATGATGATTTTTTTTTTTTTTTGATCC [CCTAG] ?
Response line: 0.398

Prompt line: Try this sequence next: TTTTTTCATCAGCATCAGCATTTTTTTTTTTTTTTGGTGT [TGTGG]
Response line: 0.663

Prompt line: Try this sequence next: TTTTTTCATGATCATCAGCATTTTTTTTTTTTTTTGCGGT [TGGCG]
Response line: 0.743

Prompt line: Try this sequence next: TTTTTGCATGCGCATGAGCATTTTTTTTTTTTTTTTATCT [TCTAT]
Response line: 0.457

Prompt line: Try this sequence next: TTTTTTGCTCATGCTGATCATTTTTTTTTTTTTTTAGACG [GCAGA]
Response line: 0.563

Prompt line: Try this sequence next: `TTTTTTGCTGATGCTGATGCTTTTTTTTTTTTTTTACACA`
Response line: 0.469

Prompt line: Try this sequence next: TTTTTTGATGAGCATGATCATTTTTTTTTTTTTTTCCTCG [GCTCC]
Response line: 0.471

Prompt line: Try this sequence next: TTTTTTGCTGCTCAGCATGATTTTTTTTTTTTTTTAAGTC [CTGAA]
Response line: 0.438

Prompt line: Try this sequence next: TTTTTGCATCAGCAGCATGCTTTTTTTTTTTTTTTTGTTA [ATTGT]
Response line: 0.51

Prompt line: Try this sequence next: `TTTTTGCATGATGATGAGCATTTTTTTTTTTTTTTTCCCT`
Response line: 0.472

---

# test name: background-corrected fluorescence of 3'-dye-labeled ssDNA relative to brightest sequence (3'-GCGCG) (fraction); higher = brighter dye fluorescence (less quenching)
# condition parameters: dye: Cy5 (3' terminal)
Please go through the items and note down their background-corrected fluorescence.

Prompt line: Which background-corrected fluorescence is listed for TTTTTTCAGCATGCTGCGCATTTTTTTTTTTTTTTGTAAT [TAATG] ?
Response line: 0.435

Prompt line: Try this sequence next: TTTTTTGCTGATGAGCATGCTTTTTTTTTTTTTTTACCTA [ATCCA]
Response line: 0.366

Prompt line: Try this sequence next: TTTTTTGCTGCTGAGCATCATTTTTTTTTTTTTTTAACTG [GTCAA]
Response line: 0.381

Prompt line: Try this sequence next: TTTTTTGATGATCATGATCATTTTTTTTTTTTTTTCCGCG [GCGCC]
Response line: 0.944

Prompt line: Try this sequence next: TTTTTTGATGATCAGCATGATTTTTTTTTTTTTTTCCGTC [CTGCC]
Response line: 0.345

Prompt line: Try this sequence next: TTTTTTCAGCATGAGCAGCATTTTTTTTTTTTTTTGTCTT [TTCTG]
Response line: 0.364

Prompt line: Try this sequence next: TTTTTTGAGCATGATGATGCTTTTTTTTTTTTTTTCTCCA [ACCTC]
Response line: 0.356

Prompt line: Try this sequence next: `TTTTTTGCTCAGCATCATGCTTTTTTTTTTTTTTTAGTGA`
Response line: 0.536

Prompt line: Try this sequence next: `TTTTTTCATGCGCATGCTCATTTTTTTTTTTTTTTGATAG`
Response line: 0.425

Prompt line: Try this sequence next: TTTTTTGCGCATGATGAGCATTTTTTTTTTTTTTTATCCT [TCCTA]
Response line: 0.348

Prompt line: Try this sequence next: TTTTTTGCTGCTGCTCATCATTTTTTTTTTTTTTTAAAGG [GGAAA]
Response line: 0.502

Prompt line: Try this sequence next: TTTTTTCATGCTCATCATGCTTTTTTTTTTTTTTTGAGGA [AGGAG]
Response line: 0.669

Prompt line: Try this sequence next: TTTTTTCATGCTGAGCATGCTTTTTTTTTTTTTTTGACTA [ATCAG]
Response line: 0.416

Prompt line: Try this sequence next: TTTTTGCATGCTGCTGATCATTTTTTTTTTTTTTTTAACG [GCAAT]
Response line: 0.426

Prompt line: Try this sequence next: TTTTTTGAGCATGATGCGCATTTTTTTTTTTTTTTCTCAT [TACTC]
Response line: 0.378

Prompt line: Try this sequence next: TTTTTGCAGCATGATGATCATTTTTTTTTTTTTTTTTCCG [GCCTT]
Response line: 0.366

Prompt line: Try this sequence next: TTTTTTGATGCTGCGCATCATTTTTTTTTTTTTTTCAATG [GTAAC]
Response line: 0.364

Prompt line: Try this sequence next: TTTTTTGATCATCATGATGCTTTTTTTTTTTTTTTCGGCA [ACGGC]
Response line: 0.493

Prompt line: Try this sequence next: TTTTTGCATCATGCGCATGATTTTTTTTTTTTTTTTGATC [CTAGT]
Response line: 0.335

Prompt line: Try this sequence next: TTTTTGCATGATGCTGCTGATTTTTTTTTTTTTTTTCAAC [CAACT]
Response line: 0.318

Prompt line: Try this sequence next: TTTTTTCATCATGATGAGCATTTTTTTTTTTTTTTGGCCT [TCCGG]
Response line: 0.386

Prompt line: Try this sequence next: TTTTTTCATGCTCATGCTGATTTTTTTTTTTTTTTGAGAC [CAGAG]
Response line: 0.357

Prompt line: Try this sequence next: TTTTTTGCGCAGCATGATCATTTTTTTTTTTTTTTATTCG [GCTTA]
Response line: 0.388

Prompt line: Try this sequence next: TTTTTTCATCAGCATCATGCTTTTTTTTTTTTTTTGGTGA [AGTGG]
Response line: 0.555

Prompt line: Try this sequence next: TTTTTGCATGCTGCTGCTCATTTTTTTTTTTTTTTTAAAG [GAAAT]
Response line: 0.397

Prompt line: Try this sequence next: TTTTTTGATGCTCATCATGCTTTTTTTTTTTTTTTCAGGA [AGGAC]
Response line: 0.6

Prompt line: Try this sequence next: `TTTTTTCATGCTCATGCTCATTTTTTTTTTTTTTTGAGAG`
Response line: 0.492

Prompt line: Try this sequence next: TTTTTTGAGCATGCTGATGCTTTTTTTTTTTTTTTCTACA [ACATC]
Response line: 0.364

Prompt line: Try this sequence next: TTTTTTGCTGCTGCGCATGCTTTTTTTTTTTTTTTAAATA [ATAAA]
Response line: 0.451

Prompt line: Try this sequence next: TTTTTGCAGCAGCATCATGATTTTTTTTTTTTTTTTTTGC [CGTTT]
Response line: 0.341

Prompt line: Try this sequence next: TTTTTTGATGCTCAGCATGCTTTTTTTTTTTTTTTCAGTA [ATGAC]
Response line: 0.461

Prompt line: Try this sequence next: TTTTTTGATCATGATGATGCTTTTTTTTTTTTTTTCGCCA [ACCGC]
Response line: 0.423

Prompt line: Try this sequence next: TTTTTTGAGCATCAGCATCATTTTTTTTTTTTTTTCTGTG [GTGTC]
Response line: 0.425

Prompt line: Try this sequence next: TTTTTGCATCATCATGCTGATTTTTTTTTTTTTTTTGGAC [CAGGT]
Response line: 0.404

Prompt line: Try this sequence next: TTTTTGCATCATGCTCATGATTTTTTTTTTTTTTTTGAGC [CGAGT]
Response line: 0.422

Prompt line: Try this sequence next: `TTTTTTCATCATCATCAGCATTTTTTTTTTTTTTTGGGGT`
Response line: 0.626

Prompt line: Try this sequence next: TTTTTTGCTCATCAGCATCATTTTTTTTTTTTTTTAGGTG [GTGGA]
Response line: 0.482

Prompt line: Try this sequence next: TTTTTTGCTCATGCTGCTCATTTTTTTTTTTTTTTAGAAG [GAAGA]
Response line: 0.456

Prompt line: Try this sequence next: TTTTTTGATGCTGATCAGCATTTTTTTTTTTTTTTCACGT [TGCAC]
Response line: 0.473

Prompt line: Try this sequence next: TTTTTGCATCAGCATGCTGCTTTTTTTTTTTTTTTTGTAA [AATGT]
Response line: 0.478

Prompt line: Try this sequence next: TTTTTTGATGCTCATCATCATTTTTTTTTTTTTTTCAGGG [GGGAC]
Response line: 0.574

Prompt line: Try this sequence next: TTTTTTCAGCATGCTGAGCATTTTTTTTTTTTTTTGTACT [TCATG]
Response line: 0.399
